subject-of-test: Angiotensin II receptor (AT-1) type-1 (Rattus norvegicus, UniProt P29089+P25095)
experiment-notes: Antagonist activity at AT1 receptor in Rattus norvegicus (rat) liver
endpoint-label: pIC50
Format: numeric value only, no unit, no commentary.

{"columns": ["smiles-input", "pIC50"],
 "data": [
  ["CCCn1nc(C(C)C)c(C(=O)O)c1Cc1ccc(-c2ccccc2NS(=O)(=O)C(F)(F)F)cc1", 7.13]
]}

I am curious: what pIC50 value has been reported for `CCCn1nc(C2CC2)c(C(=O)O)c1Cc1ccc(-c2ccccc2S(=O)(=O)Nc2ccccc2)cc1` ?
7.744

Please do the same for `CCCCOC(=O)NS(=O)(=O)c1ccccc1-c1ccc(Cc2c(C(=O)O)cnn2CCCC)cc1` as well.
7.522

Thanks! And `CCCn1nc(C(C)C)c(C(=O)O)c1Cc1ccc(-c2ccccc2C(=O)O)cc1` ?
6.886

====

subject-of-test: Angiotensin II receptor (AT-1) type-1 (Rattus norvegicus, UniProt P29089+P25095)
experiment-notes: Antagonist activity at AT1 receptor in Rattus norvegicus (rat) liver
As shown below, each of these molecules has a reported pIC50 value.
Write the value as a bare number.

Recorded pIC50 for `Cc1nn(-c2ccccc2)c(Cc2ccc(-c3ccccc3-c3nn[nH]n3)cc2)c1C(=O)O` with Angiotensin II receptor (AT-1) type-1 (Rattus norvegicus, UniProt P29089+P25095), please?
7.102

====

subject-of-test: Angiotensin II receptor (AT-1) type-1 (Rattus norvegicus, UniProt P29089+P25095)
experiment-notes: Antagonist activity at AT1 receptor in Rattus norvegicus (rat) liver
endpoint-label: IC50 (nM)
Output spec: scalar in nM, unitless text.

{"columns": ["smiles-input", "IC50, nM"],
 "data": [
  ["CCCCn1nc(C)c(C(=O)O)c1Cc1ccc(-c2ccccc2S(=O)(=O)Nc2ccccc2)cc1", 12]
]}

Reported IC50 for `CCCCOC(=O)NS(=O)(=O)c1ccccc1-c1ccc(Cc2c(C(=O)O)cnn2CCCC)cc1` : what is it?
13

Check `CCCn1nc(C(C)C)c(C(=O)O)c1Cc1ccc(-c2ccccc2C(=O)O)cc1` too.
130

Another compound: `CCCn1nc(C2CC2)c(C(N)=O)c1Cc1ccc(-c2ccccc2S(=O)(=O)Nc2ccccc2)cc1`
7.4

`CCCCc1nn(CCC)c(Cc2ccc(-c3ccccc3-c3nnn[nH]3)cc2)c1C(=O)O` , same question.
3

Another compound: `CCCn1nc(C2CC2)c(C(=O)O)c1Cc1ccc(-c2ccccc2S(=O)(=O)Nc2ccccc2)cc1`
18

Another compound: `CCCn1nc(C(C)C)c(C(=O)O)c1Cc1ccc(-c2ccccc2NS(=O)(=O)C(F)(F)F)cc1`
74

====

subject-of-test: Angiotensin II receptor (AT-1) type-1 (Rattus norvegicus, UniProt P29089+P25095)
Sequence (P29089 whole entry): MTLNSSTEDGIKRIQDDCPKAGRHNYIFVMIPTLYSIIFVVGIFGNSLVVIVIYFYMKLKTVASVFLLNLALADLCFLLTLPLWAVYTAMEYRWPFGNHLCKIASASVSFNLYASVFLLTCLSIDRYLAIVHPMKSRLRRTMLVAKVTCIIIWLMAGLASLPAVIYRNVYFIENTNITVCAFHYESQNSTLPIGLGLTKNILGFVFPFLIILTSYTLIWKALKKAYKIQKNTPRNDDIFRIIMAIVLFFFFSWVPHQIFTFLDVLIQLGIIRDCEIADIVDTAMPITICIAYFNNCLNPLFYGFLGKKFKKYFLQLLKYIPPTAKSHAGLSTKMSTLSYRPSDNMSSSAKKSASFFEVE
Sequence (P25095 whole entry): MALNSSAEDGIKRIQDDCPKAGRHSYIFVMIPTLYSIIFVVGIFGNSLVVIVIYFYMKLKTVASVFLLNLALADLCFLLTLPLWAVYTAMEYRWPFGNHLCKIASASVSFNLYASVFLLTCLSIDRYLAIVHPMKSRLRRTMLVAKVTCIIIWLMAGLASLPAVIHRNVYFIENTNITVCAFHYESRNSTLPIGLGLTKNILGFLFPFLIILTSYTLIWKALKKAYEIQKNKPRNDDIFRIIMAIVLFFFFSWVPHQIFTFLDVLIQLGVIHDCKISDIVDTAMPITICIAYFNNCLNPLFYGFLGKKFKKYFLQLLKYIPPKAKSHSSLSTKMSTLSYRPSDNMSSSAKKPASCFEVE
experiment-notes: Antagonist activity at AT1 receptor in Rattus norvegicus (rat) liver
endpoint-label: pIC50

{"columns": ["smiles-input", "pIC50"],
 "data": [
  ["CCCCn1nc(C)c(C(=O)O)c1Cc1ccc(-c2ccccc2S(=O)(=O)Nc2ccccc2)cc1", 7.92],
  ["CCCn1nc(C2CC2)c(C(N)=O)c1Cc1ccc(-c2ccccc2S(=O)(=O)Nc2ccccc2)cc1", 8.13],
  ["CCCCn1nc(C)c(C(=O)O)c1Cc1ccc(-c2ccccc2-c2nn[nH]n2)cc1", 8.567]
]}

What value of pIC50 has been recorded for this entry: `CCCCc1nn(CCC)c(Cc2ccc(-c3ccccc3-c3nnn[nH]3)cc2)c1C(=O)O`
8.522

Hey, just so you know, these numbers are from ChEMBL document CHEMBL3045701.
